Test: amyloid nucleation score (Sup35N fusion, yeast selection) (log enrichment); library NNK3; higher = more nucleation; inactive = no reads after selection;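 further: zero at mode of non-aggregating sequences after 7 days selection at 30°C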
Quantity Kind: amyloid nucleation score

INSERT INTO assay_data (substance, quantity_kind, reported_result) VALUES
  ('CQQIWRLGQCVQLLFCTRSK', 'amyloid nucleation score', 1.31),
  ('SLFSGVYSFYY', 'amyloid nucleation score', 'inactive'),
  ('YDTAVYIIELGCNDNKSWVR', 'amyloid nucleation score', 'inactive'),
  ('SLIYTKYLLMYFIILFLDGG', 'amyloid nucleation score', 'inactive'),
  ('CRLVINNYMSR', 'amyloid nucleation score', 2.83),
  ('EIGYYFNFKRLGAS', 'amyloid nucleation score', 'inactive'),
  ('KGYSRYQSVHRSNRELYNQA', 'amyloid nucleation score', -0.563),
  ('RERPRD', 'amyloid nucleation score', 'inactive'),
  ('LHPYHYIWKMAHL', 'amyloid nucleation score', 'inactive'),
  ('SIGNAVYMIVGITGVRRRIY', 'amyloid nucleation score', 'inactive'),
  ('YNLRYLVYYLDLLSPVNQMG', 'amyloid nucleation score', 'inactive'),
  ('VSLTGWSR', 'amyloid nucleation score', 'inactive'),
  ('KIGSLVKECCGLPVYYALLK', 'amyloid nucleation score', 'inactive'),
  ('LTVRSHHQAGDMCRRRAISP', 'amyloid nucleation score', 'inactive'),
  ('VAFDIINRQNIINEWGCWID', 'amyloid nucleation score', 'inactive'),
  ('SIESPSNIMS', 'amyloid nucleation score', 'inactive'),
  ('GCISVVSL', 'amyloid nucleation score', 'inactive'),
  ('AKWLEEKLMPAIDVVPGQWL', 'amyloid nucleation score', 'inactive');

----------
Test: amyloid nucleation score (Sup35N fusion, yeast selection) (log enrichment); library NNK1; higher = more nucleation; inactive = no reads after selection
Quantity Kind: amyloid nucleation score

INSERT INTO results (substance, quantity_kind, reported_result) VALUES
  ('ILGTIYDIMQNGDIHRFLAY', 'amyloid nucleation score', -0.834),
  ('LTYATDSFNRNFHILMHHVP', 'amyloid nucleation score', -0.711),
  ('NLLQLYDICAGCVRYSRWDG', 'amyloid nucleation score', 1.53),
  ('EGIHKR', 'amyloid nucleation score', 0.324),
  ('WYIVPITVNFQG', 'amyloid nucleation score', 6.54),
  ('MDSTHSIPCHLNVFL', 'amyloid nucleation score', -0.475),
  ('LRFPLARNHTGYQTGVTEFT', 'amyloid nucleation score', -0.526),
  ('EKRRNNTSNRSWSGSYFLDT', 'amyloid nucleation score', 0.111),
  ('KSRRSCQQLIIVKHVVHARR', 'amyloid nucleation score', 4.08),
  ('VLRLHAMRQQGICWSCVTGM', 'amyloid nucleation score', 0.185),
  ('SPHSLTFSLMVMVRKKMMRS', 'amyloid nucleation score', 0.012),
  ('MKSFSMLPYIIVFRYY', 'amyloid nucleation score', 0.823),
  ('YLLYDQQVSLRFVWITLSVW', 'amyloid nucleation score', 0.683),
  ('VFYLCSLLCLIVKRLGQGDC', 'amyloid nucleation score', 0.484),
  ('RGGRRDWLCIFRGRLGVA', 'amyloid nucleation score', -1.08),
  ('EVLNIYLHNRLNVLFTELAS', 'amyloid nucleation score', -0.884),
  ('DALDLRSWQGEL', 'amyloid nucleation score', -0.274),
  ('GYNSVYHLSNVALR', 'amyloid nucleation score', 0.928),
  ('ACEELVQIVVYCDSFMFSPS', 'amyloid nucleation score', 1.46),
  ('YSGVPLARQCGADGLKGTGE', 'amyloid nucleation score', 0.724),
  ('HVLADHYTMRGTNFVGYFHL', 'amyloid nucleation score', 4.88),
  ('EQAGVRVTDYVAVELLFWRF', 'amyloid nucleation score', 0.826),
  ('ACDVVIRTWITKDTKGFYRA', 'amyloid nucleation score', 0.488),
  ('IYFVIGYVNVCWGSATEDMT', 'amyloid nucleation score', 5.46),
  ('CTPFMRTSLSFICSDSSVML', 'amyloid nucleation score', 0.771),
  ('GHLWWSVLLVPLFTVGSTSV', 'amyloid nucleation score', 0.399),
  ('SDVYRGVVIVGHMIAKHMLV', 'amyloid nucleation score', 0.494),
  ('WVIVASP', 'amyloid nucleation score', -1.42);

----------
Test: amyloid nucleation score (Sup35N fusion, yeast selection) (log enrichment); library NNK3; higher = more nucleation; inactive = no reads after selection
Quantity Kind: amyloid nucleation score

INSERT INTO assay_data (substance, quantity_kind, reported_result) VALUES
  ('ATGYGL', 'amyloid nucleation score', 'inactive'),
  ('FSDMCGRSFINSSWGGSAGV', 'amyloid nucleation score', 'inactive'),
  ('TFALFLGWIMPTSGGDTGYY', 'amyloid nucleation score', 0.037),
  ('VLCAYK', 'amyloid nucleation score', 'inactive'),
  ('RGIWGLSLYGVISNVSGLSK', 'amyloid nucleation score', -0.103),
  ('YFFSDNRNFRVNPVSNR', 'amyloid nucleation score', 'inactive'),
  ('SSLETLSSLFLIRLMELVSR', 'amyloid nucleation score', 'inactive'),
  ('DDKRTENG', 'amyloid nucleation score', 'inactive'),
  ('FVLVWFLRLFDL', 'amyloid nucleation score', 'inactive'),
  ('DDLYMFMLIVRMLISQIKRV', 'amyloid nucleation score', 'inactive'),
  ('VKISYDKSRHVCLCGFSSM', 'amyloid nucleation score', 2.37),
  ('LAWIVCDCIGQCCTFIVRVW', 'amyloid nucleation score', 'inactive'),
  ('FFVYHTILRLPNGAGLRCGP', 'amyloid nucleation score', 'inactive'),
  ('NTDVVCMLNWLLTW', 'amyloid nucleation score', 'inactive'),
  ('KLFWMIVCGVLNLNSNNYGG', 'amyloid nucleation score', 2.57),
  ('KLHPTYLCNQNPRELWLITY', 'amyloid nucleation score', 'inactive'),
  ('TYMCQVFNILDSQKYCYMRR', 'amyloid nucleation score', 'inactive'),
  ('PQLCESLELSEKRRTEDLVG', 'amyloid nucleation score', 'inactive'),
  ('LYVYTMR', 'amyloid nucleation score', 'inactive'),
  ('RFLLLRSCMSIDWRVGLEIF', 'amyloid nucleation score', 'inactive'),
  ('CNLYPCPYSKITDTAMLLGC', 'amyloid nucleation score', 'inactive'),
  ('TSFWGGALEDSATITLECWF', 'amyloid nucleation score', -0.24),
  ('VREMGLTHFTASLYRGEMPG', 'amyloid nucleation score', 'inactive'),
  ('RGMKDCCTRWALRYWDVSVL', 'amyloid nucleation score', 'inactive'),
  ('LVLWMVDTSFAGSVDVSEMA', 'amyloid nucleation score', 'inactive'),
  ('SSTGSLIPQPAFSYFCTATP', 'amyloid nucleation score', 'inactive'),
  ('DMIESSKRFFGSARIVLPEM', 'amyloid nucleation score', 'inactive'),
  ('YLWARNGDLLLSCCSLNSCM', 'amyloid nucleation score', 2.52),
  ('RVTDLRYIKMFVCIILCTGL', 'amyloid nucleation score', 'inactive'),
  ('LYCCTGEHGSLASVCSSTLT', 'amyloid nucleation score', -0.852),
  ('INCLRSLTNCINSCRPIIVL', 'amyloid nucleation score', 'inactive'),
  ('FKAVQN', 'amyloid nucleation score', 'inactive'),
  ('RMGLTEMWHVIPSITSRQYL', 'amyloid nucleation score', 'inactive'),
  ('IFYVGNTLIFFIYMNWNRTY', 'amyloid nucleation score', 0.679),
  ('MDVVLRINLKQGRYPGTNAH', 'amyloid nucleation score', 2.1),
  ('VRIFYMV', 'amyloid nucleation score', 'inactive'),
  ('SSYLDTNWRMP', 'amyloid nucleation score', 'inactive'),
  ('CVYQLLGLVKMRNIRADGHA', 'amyloid nucleation score', 'inactive'),
  ('EAEGNINTRGTHRCLYGSFK', 'amyloid nucleation score', 'inactive'),
  ('GKSSKDLHIFIMIRVWHYLT', 'amyloid nucleation score', 'inactive'),
  ('IKMGVRYGRNTVWTARCGSG', 'amyloid nucleation score', 0.222),
  ('GEIANSQVRKWLIEMYSPVV', 'amyloid nucleation score', 'inactive'),
  ('IWRLLGSWVSVTMDIYHWSS', 'amyloid nucleation score', 'inactive'),
  ('AVKHHSSTFIFTMGIKLLWL', 'amyloid nucleation score', 'inactive'),
  ('LVSDEPNLGFDN', 'amyloid nucleation score', 'inactive'),
  ('SFPLPS', 'amyloid nucleation score', 'inactive'),
  ('MWPYIMILGIVDTMWLLLSP', 'amyloid nucleation score', 'inactive'),
  ('HMFMRNLEMRVGHSFHRLRD', 'amyloid nucleation score', 'inactive'),
  ('TFNRWCLVFLLMHNVLVCEW', 'amyloid nucleation score', 0.185),
  ('FGLNSCTSYKYQLSMSGFST', 'amyloid nucleation score', -0.491),
  ('CRHRYLDCCFGNWHP', 'amyloid nucleation score', 'inactive'),
  ('EIIFLS', 'amyloid nucleation score', 'inactive'),
  ('AFSDGTLSLTSKVRLGDS', 'amyloid nucleation score', 'inactive'),
  ('TCYSIERFACY', 'amyloid nucleation score', 'inactive'),
  ('TASTQSPYHFYCRV', 'amyloid nucleation score', 'inactive'),
  ('EHVWHRCTKVN', 'amyloid nucleation score', 'inactive'),
  ('YSRMCLVY', 'amyloid nucleation score', 'inactive'),
  ('PLVDPLGELYAATFCSGEYC', 'amyloid nucleation score', 'inactive'),
  ('SWASQWLFTPLSTVRSYIIL', 'amyloid nucleation score', 'inactive'),
  ('RSERVRNSKLTVCVIYKYIK', 'amyloid nucleation score', 'inactive'),
  ('DFIFIQILDVNCRWDRCMYC', 'amyloid nucleation score', 0.444),
  ('VTVSAQPAIK', 'amyloid nucleation score', 'inactive'),
  ('CLKGNFIVNSNVFKCVLWYS', 'amyloid nucleation score', 'inactive'),
  ('CGRGDSVLSI', 'amyloid nucleation score', 'inactive'),
  ('NRTMLFEEKYVG', 'amyloid nucleation score', 'inactive'),
  ('YSLNGAY', 'amyloid nucleation score', 'inactive'),
  ('HYHSWFPTYSYSYYV', 'amyloid nucleation score', 2.71),
  ('TMCHGDDLRNHCYSETNSFR', 'amyloid nucleation score', 'inactive'),
  ('FYVSSTP', 'amyloid nucleation score', 'inactive'),
  ('VAKLKRTWTVWLVIYSRKSW', 'amyloid nucleation score', 'inactive'),
  ('PFACAVAKNPHES', 'amyloid nucleation score', 'inactive'),
  ('PENDRNMLLVSVIVPRYIAT', 'amyloid nucleation score', 'inactive'),
  ('MRAFIRYCIFVCMSAYRNMV', 'amyloid nucleation score', -0.352);
